Target: KRas Q61H (Homo sapiens, UniProt P01116, Q61H)
Sequence (P01116 1-169 isoform P01116-2 Q61H): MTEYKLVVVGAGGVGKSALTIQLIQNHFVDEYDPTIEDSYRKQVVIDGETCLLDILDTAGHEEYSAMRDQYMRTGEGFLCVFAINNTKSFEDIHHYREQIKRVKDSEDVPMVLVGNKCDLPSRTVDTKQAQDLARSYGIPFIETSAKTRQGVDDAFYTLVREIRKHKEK
Experiment: KRas binding assay (TR-FRET displacement), KRas Q61H
Conditions: single point, 10 nM compound
measurementLabel: inhibition at 0.01 µM (%)
API: value field is a number in %; no unit string.

* CCc1c(F)ccc2cc(O)cc(N3CCc4c(nc(OC[C@@]56CCCN5C[C@H](F)C6)nc4N4CCCn5nc6c(c5C4)CCCN(C)C6=O)C3)c12 [Example 409] | 100
* CCc1c(F)ccc2cc(O)cc(N3CCc4c(nc(OC[C@@]56CCCN5C[C@H](F)C6)nc4N4CCCn5nc(C(=O)N6CC7CCC6CC7)cc5C4)C3)c12 [Example 339] | 94
* CCc1c(F)ccc2cc(O)cc(N3CCc4c(nc(OC[C@@]56CCCN5C[C@H](F)C6)nc4N4CCCn5nc(C(=O)NC6CCC6)cc5C4)C3)c12 [Example 378] | 91
* CCNC(=O)c1cc2n(n1)CCCCN(c1nc(OC[C@@]34CCCN3C[C@H](F)C4)nc3c1CCN(c1cc(O)cc4ccc(F)c(CC)c14)C3)C2 [Example 301] | 94
* CCc1c(F)ccc2cc(O)cc(N3CCc4c(nc(OC[C@@]56CCCN5C[C@H](F)C6)nc4N4CCCn5nc(C(=O)N(C)C)c(Br)c5C4)C3)c12 [Example 387] | 99

Now consider the entry below.
Need inhibition at 0.01 µM of CCc1c(F)ccc2cc(O)cc(N3CCc4c(nc(OC[C@@]56CCCN5C[C@H](F)C6)nc4N4CCCn5nc(C(=O)N(C)C)c(COC)c5C4)C3)c12 [Example 269] , thanks. 98

---

System: MKN1 cells
Assay: Inhibition of KRas-mediated phosphorylation of ERK (Cisbio HTRF pERK), MKN1 cells
Format: cell-based
Conditions: Homo sapiens, MKN-1, 3 hour compound incubation, Cisbio pERK HTRF
// bucketize IC50: low: < 10 nM; medium: ≥ 10 nM and < 60 nM; high: ≥ 60 nM

Please review the entries below; each comes with its answer.
* O=C1NC(=O)[C@]2(CCCN(c3nc(OC[C@@]45CCCN4C[C@H](F)C5)nc4c3CCN(c3cc(O)cc5ccc(F)c(Cl)c35)C4)C2)N1 | low
* CCc1c(F)ccc2cc(O)cc(N3CCc4c(nc(OC[C@@]56CCCN5C[C@H](F)C6)nc4NCC4CNS(=O)(=O)N4)C3)c12 (some centres unmarked) | high

Attention now turns to another entry.
Into which category would you place "CCc1c(F)ccc2cc(O)cc(N3CCc4c(nc(OCC5(CN(C)C)CC5)nc4N4C[C@@H]5C[C@H](C4)[C@H](O)C5)C3)c12" ? high

---

Documented IC50 across a set of compounds
Tested on: A549 cells
Assay: Inhibition of KRas-mediated phosphorylation of ERK (Cisbio HTRF pERK), A549 cells
Format: cell-based
Settings: Homo sapiens, A549, 3 h, 3 hr compound incubation
Answer in nM, number only, no unit symbol.

State the recorded IC50 for this entry: C=C1CN2CCCC2(COc2nc3c(c(N4CCCC5(CNS(=O)(=O)N5)C4)n2)CCN(c2cc(O)cc4ccc(F)c(CC)c24)C3)C1 (stereo not shown) 216

Given "C[C@@]1(O)COCCN(c2nc(OC[C@@]34CCCN3C[C@H](F)C4)nc3c2CCN(c2ccc(F)c4sc(N)c(C#N)c24)C3)C1" , state its recorded IC50. 1210

State the recorded IC50 for this entry: "CCc1c(F)ccc2cc(O)cc(N3CCc4c(nc(OC[C@@]56CCCN5C[C@H](F)C6)nc4N4CCCN(CC(F)(F)F)CC4)C3)c12" 3100

Please give the measured IC50 for this compound: C[C@@H]1C[C@@H]1c1c(Cl)cc(O)cc1N1CCc2c(nc(OC[C@@]34CCCN3C[C@H](F)C4)nc2N2CCC[C@]3(CNS(=O)(=O)N3)C2)C1 (stereo in doubt) 334

For the compound C[C@@H]1C[C@@H]1c1c(Cl)cc(O)cc1N1CCc2c(nc(OC[C@@]34CCCN3C[C@H](F)C4)nc2N2CCC[C@]3(C2)NC(=O)NC3=O)C1 (stereo in doubt) , what IC50 is on record? 17

Consider the compound shown here: C[C@@H]1C[C@@H]1c1c(Cl)cc(O)cc1N1CCc2c(nc(OC[C@@]34CCCN3C[C@H](F)C4)nc2N2CCC[C@@](C)(O)C2)C1 (stereo in doubt) What is its recorded IC50? 359

Value lookup for IC50; key = C[C@@H]1C[C@@H]1c1c(Cl)cc(O)cc1N1CCc2c(nc(OC[C@@]34CCCN3C[C@H](F)C4)nc2N2CCCn3nc(C(=O)N(C)C)cc3C2)C1 (stereo in doubt) 294

What IC50 value was documented for this compound, C=C1CN2CCCC2(COc2nc3c(c(N4CC5CC(O)CC4C5)n2)CCN(c2cc(O)cc4ccc(F)c(CC)c24)C3)C1 (stereo not shown) ? 3800

Using the record for "CN(C)C(=O)c1cc2n(n1)CCCN(c1nc(OC[C@@]34CCCN3C[C@H](F)C4)nc3c1CCN(c1ccc(F)c4sc(N)c(C#N)c14)C3)C2" , report its IC50. 8710

What does the data say about its IC50? Entry: C=C1CN2CCCC2(COc2nc3c(c(N4CCCC5(CCO5)C4)n2)CCN(c2cc(O)cc4ccc(F)c(CC)c24)C3)C1 (stereo not shown) 92

What does the record list as IC50 for "CCc1c(F)ccc2cc(O)cc(N3CCc4c(nc(OC[C@@]56CCCN5C[C@H](F)C6)nc4N4CCCn5nc(C(=O)N6CC[C@H]7CC[C@@H]6C7)cc5C4)C3)c12" ? 27

Consider the compound C=C1CN2CCCC2(COc2nc3c(c(N4CCCC5(CC(O)C5)C4)n2)CCN(c2cc(O)cc4ccc(F)c(CC)c24)C3)C1 (stereo not shown) and give its measured IC50. 131

I would be grateful if you could share the reported IC50 for "C[C@@]1(O)CCCN(c2nc(OC[C@@]34CCCN3C[C@H](F)C4)nc3c2CCN(c2ccc(F)c4sc(N)c(C#N)c24)C3)C1" . 4820
